Listed here are molecules together with their documented LD50.
experiment: Compound was tested for acute toxicity in mice upon intravenous administration; format: organism-based; details: mouse, in vivo
Positions of bridges follow the written chain, without caps; N, C: chain ends. Non-standard residues stand in square brackets, D forms with d. Residues, ends and D or L forms follow the SMILES beside them. *: point of attachment. Heptanoyl(6-Me) = CC(C)CCCCC(=O)*; Dab = NCC[C@H](N)C(=O)O
Give the quantity in mg/kg, number only.

- Molecule: "CCCCCCC(N)C(=O)NCC[C@@H]1NC(=O)[C@H](CCN)NC(=O)[C@H](CC(C)C)NC(=O)[C@@H](Cc2ccccc2)NC(=O)[C@H](CCN)NC(=O)[C@@H](NC(=O)[C@H](CCN)NC(=O)[C@@H](NC(=O)[C@H](CCN)NC(=O)CCCCC(C)C)[C@@H](C)O)CCNC(=O)[C@H]([C@@H](C)O)NC1=O (stereo partly drawn)"
  Endpoint unit: "mg/kg"
  Assay value: 12
- Molecule: "CC(C)CCCCC(=O)N[C@@H](CCN)C(=O)N[C@H](C(=O)N[C@@H](CCN)C(=O)N[C@H]1CCNC(=O)[C@H]([C@@H](C)O)NC(=O)[C@H](CCNC(=O)[C@@H](N)C[C@H](CCN)C(=O)OCc2ccccc2)NC(=O)[C@H](CCN)NC(=O)[C@H](CC(C)C)NC(=O)[C@@H](Cc2ccccc2)NC(=O)[C@H](CCN)NC1=O)[C@@H](C)O"
  Endpoint unit: "mg/kg"
  Assay value: 13

CC(C)CCCCC(=O)N[C@@H](CCN)C(=O)N[C@H](C(=O)N[C@@H](CCN)C(=O)N[C@H]1CCNC(=O)[C@H]([C@@H](C)O)NC(=O)[C@H](CCN)NC(=O)[C@H](CCN)NC(=O)[C@H](CC(C)C)NC(=O)[C@@H](Cc2ccccc2)NC(=O)[C@H](CCN)NC1=O)[C@@H](C)O ({Heptanoyl(6-Me)}-[Dab]T[Dab][Dab][Dab][dF]L[Dab][Dab]T; lactam 4-C) yielded LD50 of 9

Hello, the source for this data is ChEMBL document CHEMBL1130694, in case you need it.
